assayed system: NTD of human MFSD7C (Homo sapiens, UniProt Q9UPI3)
Construct: Plasmid harboring GST-His-tag-SUMO-NTD (amino acids 1-84); GST-His-tag-SUMO (N, cleaved yes); made in house; host or cells: Escherichia coli Lemo21(DE3)
Sequence (Q9UPI3 1-84): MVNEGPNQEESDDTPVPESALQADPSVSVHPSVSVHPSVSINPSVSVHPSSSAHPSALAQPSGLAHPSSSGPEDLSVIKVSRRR
measurement protocol: Isothermal titration calorimetry of NTD binding to heme
run parameters: ITC, 25° C., 3-site sequential binding model; weaker of three heme sites on NTD; read-out: KD, one weaker site
quantity: Kd

The value of Kd measured for the compound C=CC1=C(C)C2=Cc3c(C=C)c(C)c4[n]3[Fe][n]3c(c(C)c(CCC(=O)O)c3=CC3=NC(=C4)C(C)=C3CCC(=O)O)=CC1=N2 [heme] turned out to be ~220 µM
